- target under test: human ether-à-go-go-related gene (hERG) potassium channel (human, UniProt Q12809);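 further: peak tail current of the secondary pulse compared with the same well before compound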
- Sequence (Q12809 whole entry, looked up): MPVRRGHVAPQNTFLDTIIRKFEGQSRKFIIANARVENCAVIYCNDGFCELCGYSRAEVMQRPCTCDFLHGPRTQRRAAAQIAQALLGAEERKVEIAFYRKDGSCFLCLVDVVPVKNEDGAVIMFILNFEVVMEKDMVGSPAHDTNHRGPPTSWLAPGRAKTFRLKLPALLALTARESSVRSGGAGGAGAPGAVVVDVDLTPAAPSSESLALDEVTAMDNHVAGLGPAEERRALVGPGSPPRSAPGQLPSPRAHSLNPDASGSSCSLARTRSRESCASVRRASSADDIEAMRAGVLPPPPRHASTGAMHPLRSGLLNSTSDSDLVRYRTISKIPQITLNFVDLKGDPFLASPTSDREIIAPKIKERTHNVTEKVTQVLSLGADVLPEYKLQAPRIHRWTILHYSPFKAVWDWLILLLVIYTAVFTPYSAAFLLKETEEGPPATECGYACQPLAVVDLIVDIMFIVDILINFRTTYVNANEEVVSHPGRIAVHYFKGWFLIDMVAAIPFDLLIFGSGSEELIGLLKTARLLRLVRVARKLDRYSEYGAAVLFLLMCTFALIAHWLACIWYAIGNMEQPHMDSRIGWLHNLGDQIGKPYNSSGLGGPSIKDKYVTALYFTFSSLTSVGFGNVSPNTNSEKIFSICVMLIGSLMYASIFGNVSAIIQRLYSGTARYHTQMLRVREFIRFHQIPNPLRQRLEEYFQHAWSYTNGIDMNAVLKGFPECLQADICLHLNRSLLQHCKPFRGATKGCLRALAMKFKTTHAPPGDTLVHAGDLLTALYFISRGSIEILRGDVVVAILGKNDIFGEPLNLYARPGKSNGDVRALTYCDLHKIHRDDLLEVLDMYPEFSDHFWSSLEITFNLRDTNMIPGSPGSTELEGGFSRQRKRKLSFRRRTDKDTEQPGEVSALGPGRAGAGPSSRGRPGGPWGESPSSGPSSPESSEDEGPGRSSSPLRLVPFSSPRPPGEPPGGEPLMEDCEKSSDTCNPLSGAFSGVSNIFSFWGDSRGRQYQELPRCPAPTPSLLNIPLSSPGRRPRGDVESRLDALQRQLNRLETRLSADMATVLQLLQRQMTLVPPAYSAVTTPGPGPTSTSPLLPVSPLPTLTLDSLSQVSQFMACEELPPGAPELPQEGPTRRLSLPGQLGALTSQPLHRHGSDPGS
- test method notes: primary screen, population patch clamp on CHO cells stably expressing hERG; higher = less effect of the substance
The whole screen tested about 310,000 compounds, of which about 14,000 (4.5%) showed an effect of 50% or more. The effect is printed as a negative number. For the sample, strong results were picked, then their nearest neighbours and some compounds at random. Where a SMILES comes first, the peptide text is derived from it. The star is where a group is joined. PhAc = O=C(Cc1ccccc1)*; OBn = c1ccc(CO*)cc1
Quick reference: hERG current change (%, negative = inhibition) at 10uM of the listed items.
property name: hERG current change (%, negative = inhibition) at 10uM (%)

| molecule | display unit | measured value |
| --- | --- | --- |
| COCCCNC(=O)c1ccc(-n2nc(C(F)(F)F)cc2-c2cccs2)cc1 | % | -30.6 |
| O=C(NCCCN1CCOCC1)c1ccc(-n2nc(C(F)(F)F)cc2-c2cccs2)cc1 | % | -80.4 |
| COC(=O)c1ccc(COC(=O)CNC(=O)c2ccco2)cc1 | % | 17.3 |
| OCC1OC(n2cnc3ccccc32)CC1O (centres unmarked) | % | 10.8 |
| CCOC(=O)c1ccc(COC(=O)CNC(=O)CNC(=O)Cc2ccccc2)cc1 | % | -57.2 |
| O=C(c1cc(C2CC2)on1)N1CCN(c2ccccc2)CC1 | % | -14.1 |
| CCn1c2ccccc2c2cc(NC(=O)COC(=O)c3cc(OC)c(OC)cc3OC)ccc21 | % | -3.41 |
| O=C(CNC(=O)Cc1ccccc1)NCC(=O)OCc1ccccc1 (PhAc-Gly-Gly-OBn) | % | 12.4 |
| O=C(O)c1ccc(NC(=S)NC(=O)c2ccc(-c3ccccc3)cc2)cc1 | % | 19.4 |
| Cc1cccc(C)c1NC(=O)COC(=O)c1cc(=O)c2ccccc2o1 | % | 5.2 |
| CC(=O)c1ccc(OCCOc2ccc([N+](=O)[O-])cc2)cc1 | % | -57.6 |
| O=S(=O)(c1ccccc1)N1CCN=C1SCc1ccc(Cl)c(Cl)c1 | % | -2.01 |
| c1cncc(-c2nc(NCc3ccco3)c3ccccc3n2)c1 | % | -5.1 |
| O=C(N1CCN(c2ccc(F)cc2)CC1)C1(c2cccs2)CCOCC1 | % | -33 |
| Cc1c(C(=O)Nc2ccc(S(=O)(=O)Nc3ncccn3)cc2)oc2ccc(Cl)cc12 | % | -17.4 |
| CC1CCN(S(=O)(=O)c2ccc(NC(=O)CSc3ncccc3C(=O)O)cc2)CC1 | % | 7.31 |
| Cc1ccc(NC(=O)COC(=O)Cn2c(C)csc2=O)cc1C | % | 2.05 |
| O=C(CNS(=O)(=O)c1ccccc1)NCC(=O)OCc1ccc(Cl)cc1 | % | 13.7 |
| CC(=O)c1ccc([N+](=O)[O-])cc1 | % | 15.7 |
| CC(C)(C)OC(=O)N1CCC[C@H]1c1nnc(SCc2ccccc2Cl)o1 | % | -5.07 |
| O=C(CCC(=O)N1CCCC(Nc2ccccc2)C1)c1ccc(F)cc1 (centres unmarked) | % | -8.8 |
| CC1(C)CC2CC(C)(CN2C(=O)C23CCC(C)(C(=O)C2)C3(C)C)C1 (centres unmarked) | % | -4.28 |
| CCn1c(=O)c2c(nc(SCC(=O)NCC3CCCO3)n2C)n(C)c1=O (centres unmarked) | % | -0.794 |
| Fc1cccc(Cl)c1-c1nnc2ccc3ccccc3n12 | % | 10.3 |
| O=C(CNC(=O)c1ccco1)OCc1ccc(Br)cc1 | % | 2.8 |
| c1cncc(-c2nc(NCCCn3ccnc3)c3ccccc3n2)c1 | % | -53.5 |
| COc1cc(C)ccc1OCCOCCOc1ccc(C)cc1[N+](=O)[O-] | % | -36.1 |
| COc1cccc(-c2csc(NNC(=O)c3cccs3)n2)c1 | % | -2.17 |
| OC(CNc1nc(-c2cccnc2)nc2ccccc12)c1ccccc1 (centres unmarked) | % | -36.4 |
| CCOC(=O)c1cnc2c(cnn2C)c1NCCC(O)C(F)(F)F (centres unmarked) | % | 0.469 |
| O=C(Cn1cc(C(=O)c2ccccc2F)c2ccccc21)NC1CC1 | % | -4.44 |
| Cc1cc(OC(C)C(=O)Nc2cccnc2)ccc1Cl (centres unmarked) | % | 2.05 |
| O=C(CNC(=O)c1ccco1)OCc1ccc(C(=O)Oc2ccccc2)cc1 | % | -73.6 |
| CC(C)OP(=O)(OC(C)C)/C(C=O)=N\Nc1ccc([N+](=O)[O-])cc1 | % | -55.1 |
| CC(=O)Nc1ccc(OCCOc2ccc([N+](=O)[O-])cc2)cc1 | % | 0.991 |
| COc1cccc(CNc2nc(-c3cccnc3)nc3ccccc23)c1 | % | -15.6 |
| N#CC(C#N)=NNc1ccc([N+](=O)[O-])cc1 | % | -2.55 |
| CC(Oc1ccccc1)C(=O)NNS(=O)(=O)c1ccc([N+](=O)[O-])cc1 (centres unmarked) | % | 13.4 |
| Fc1ccccc1CNc1nc(-c2cccnc2)nc2ccccc12 | % | 17.8 |
| CC(=O)OC1COC(n2c(O)c(N=NC(N)=S)c3ccccc32)C(OC(C)=O)C1OC(C)=O (centres unmarked) | % | 15.8 |
| COc1cc(C)ccc1OCCOCCOc1ccccc1[N+](=O)[O-] | % | -29.5 |
